Kindly supply the reported IC50 (μg/ml) against C. albicans values for the records listed here.
- System: Candida albicans ATCC 10231
- conditionDescription: Tables 22-23
Ends that are not written are not given here.

substance Ac-RRWWCK-NH2 [Ac-RRWWCK-NH2] , IC50 (μg/ml) against C. albicans observed: 100 to 110 µg/mL

Sure, the documented IC50 (μg/ml) against C. albicans for Ac-RRWWCT-NH2 [Ac-RRWWCT-NH2] is 216 to 223 µg/mL

Per the record, Cecropin A (KWKLFKKIEKVGQNIRDGIIKAGPAVAVVGQATQIAK; ends and bridges not checked; UniProt P01507 27-63, looked up) [reference compound] has IC50 (μg/ml) against C. albicans of 81 to 88 µg/mL

Recorded IC50 (μg/ml) against C. albicans (substance Ac-RRWWCD-NH2 [Ac-RRWWCD-NH2] ): > 1000 µg/mL

Summary for this substance, Ac-RRWWCM-NH2 [Ac-RRWWCM-NH2] : IC50 (μg/ml) against C. albicans is 96 to 112 µg/mL

Kindly note the recorded IC50 (μg/ml) against C. albicans for Ac-RRWWCH-NH2 [Ac-RRWWCH-NH2] , which is 69 to 107 µg/mL

According to the records, this substance Ac-RRWWCF-NH2 [Ac-RRWWCF-NH2] displays IC50 (μg/ml) against C. albicans of 70 to 97 µg/mL

Looking up Ac-RRWWCQ-NH2 [Ac-RRWWCQ-NH2] , I found its IC50 (μg/ml) against C. albicans recorded as 223 to 230 µg/mL

The substance identified as Ac-RRWWCV-NH2 [Ac-RRWWCV-NH2] registered its IC50 (μg/ml) against C. albicans at 103 to 174 µg/mL

// IC50 (μg/ml) against C. albicans value for Ac-RRWWCG-NH2 [Ac-RRWWCG-NH2] : 215 to 218 µg/mL

The recorded IC50 (μg/ml) against C. albicans for Ac-RRWWCY-NH2 [Ac-RRWWCY-NH2] is 184 to 212 µg/mL

Value of IC50 (μg/ml) against C. albicans reported for the substance Ac-RRWWCN-NH2 [Ac-RRWWCN-NH2] is 222 to 227 µg/mL

So, Ac-RRWWCR-NH2 [Ac-RRWWCR-NH2] ? Its IC50 (μg/ml) against C. albicans was 100 to 101 µg/mL

# substance Ac-RRWWCI-NH2 [Ac-RRWWCI-NH2] ; its IC50 (μg/ml) against C. albicans = 93 to 102 µg/mL

The measured IC50 (μg/ml) against C. albicans associated with Ac-RRWWCA-NH2 [Ac-RRWWCA-NH2] reads 193 to 210 µg/mL

Record Ac-RRWWCL-NH2 [Ac-RRWWCL-NH2] . Reported IC50 (μg/ml) against C. albicans: 65 to 95 µg/mL

IC50 (μg/ml) against C. albicans reading for Ac-RRWWCW-NH2 [Ac-RRWWCW-NH2] : 151 to 166 µg/mL

Record Ac-RRWWCP-NH2 [Ac-RRWWCP-NH2] . Reported IC50 (μg/ml) against C. albicans: 217 to 222 µg/mL

Record summary for Ac-RRWWCE-NH2 [Ac-RRWWCE-NH2] : reported IC50 (μg/ml) against C. albicans = 842 to 874 µg/mL

Input Ac-RRWWCS-NH2 [Ac-RRWWCS-NH2] . Output IC50 (μg/ml) against C. albicans: 211 to 213 µg/mL
